TGI: recorded values
- Test system: IGROV1 ovarian
- Experiment Notes: NCI tumour cell line growth inhibition, 48 h

Compound: CCCCCCCCCCCCCP(=O)(O)OCC
Experimental Target: IGROV1 ovarian
Result: > 100 µM

Below: the item to evaluate.
If you can, please state the reported TGI value of COCOc1c(C(O[Si](C)(C)C(C)(C)C)c2cnc(Sc3ccccc3)n2C)ccc(OC)c1OC (stereo unspecified) .
5.01 µM

====

TGI: recorded values
- System: EKVX NSCLC
- Experiment Notes: NCI tumour cell line growth inhibition, 48 h

Give EKVX NSCLC TGI for O=C(CCCCCCC(=O)Nc1cccnc1)NO
> 100 µM

Item: CCCCCCCCCCCCCC[S+](C)C
9.87 µM

Item: C1=CC=C2NCCCNC3=CC=CC=CC3=NCCCN=C2C=C1
> 100 µM

Item: CN(C)CCNC(=O)c1cccc2c1nc(-c1ccccc1)c1ccccc12
25.7 µM

====

- Tested on: NCI/ADR-RES ovarian
- Experiment Notes: NCI tumour cell line growth inhibition, 48 h
Short version: TGI at least 30 µM is 1, less is 0.

Compound: O=C(/C=C/c1cc([N+](=O)[O-])ccc1Cl)c1ccccc1
Assigned Class: 1
//
Compound: COc1cc2c(cc1Nc1nc(Nc3ccsc3C(N)=O)c3cc[nH]c3n1)N(C(=O)CN(C)C)CCC2(C)C
Assigned Class: 0
//
Compound: N#Cc1c(N)nc(N2CCOCC2)c(C#N)c1-c1cccnc1
Assigned Class: 1
//
Compound: Cn1c(-c2ccccc2)cc2c3ccsc3c3ccsc3c21
Assigned Class: 1
//
Compound: Cn1c2ccccc2c2c(=O)[nH]c(=O)[nH]c21
Assigned Class: 1
//
Compound: CC1(C)[C@@H](O[C@@H]2OC[C@@H](O[C@@H]3O[C@H](CO)[C@@H](O)[C@H](O)[C@H]3O[C@@H]3OC[C@@H](O)[C@H](O)[C@H]3O)[C@H](O)[C@H]2O[C@@H]2O[C@H](CO)[C@@H](O)[C@H](O)[C@H]2O)CC[C@]2(C)[C@H]3CC[C@]45OC[C@@]6(CC[C@](C)(C=O)C[C@H]64)[C@H](O)C[C@@]5(C)[C@]3(C)CC[C@@H]12
Assigned Class: 0
//
Compound: Cc1ccc(-n2[nH]nc(C#N)c2=O)cc1
Assigned Class: 1
//
Compound: O=C(O)c1cn2c3c(cc(N4CCN(CCO)CC4)cc3c1=O)SCC2
Assigned Class: 1

# bool: TGI of CN(CC(=O)N(Cc1ccc(C2CCCCC2)cc1)c1ccc(C(=O)O)c(O)c1)S(=O)(=O)c1c(F)c(F)c(F)c(F)c1F >= 30 µM
1

Item: Cn1ccnc1C(=O)/C=C/c1ccccc1
0

Item: Cc1ccc(O)c(-c2cc(-c3cccc(Cl)c3)c(C#N)c(N)n2)c1
1

Item: CC1(CCCO)CCCCCCCCCC(C)(CCCO)C1=O (stereo not given)
1

Item: CN(C)c1ccc(Nc2cc(-c3cccc(OC(F)(F)F)c3)nc3ccc(N4CCCC4)cc23)cc1
0

====

TGI: recorded values
- Test system: SW-620 colon
- Experiment Notes: NCI tumour cell line growth inhibition, 48 h

Compound: NC1CC2NC3CCCCC3NC2CC1N (stereo not drawn)
Result: > 100 µM

If you can, please state the reported TGI value of CC1C[C@@H]2C(=O)NC(=O)[C@@H]2c2c1c1ccccc1n2C (stereo partly drawn) .
> 100 µM

Item: O=C(CC1(O)C(=O)Nc2c(Cl)cc(Cl)cc21)c1cccc2ccccc12 (stereo not drawn)
31.8 µM

Item: O=[N+]([O-])c1cccc(-c2oc(C=Nc3ccccc3)c([N+](=O)[O-])c2-c2cccc([N+](=O)[O-])c2)c1
> 100 µM

Item: CCOC(=O)C(C(=S)Nc1ccccc1)c1nn2c(=O)cc(C)nc2s1 (stereo not drawn)
> 100 µM

====

- Test system: PC-3 prostate
- Experiment Notes: NCI tumour cell line growth inhibition, 48 h
TGI: recorded values

Compound: COC(=O)CCCC(=O)O
TGI: > 100 µM

Compound: COc1ccc2oc(OC)c(CC=C(C)C)c(=O)c2c1C
TGI: > 100 µM

Compound: CC1OC(OC2C(O[C@H]3CC[C@@]4(C)C(=CC[C@H]5[C@@H]6C[C@@H]7O[C@]8(CC[C@H](C)CN8)[C@@H](C)[C@@H]7[C@@]6(C)CC[C@@H]54)C3)OC(CO)C(O)C2OC2OC(CO)C(O)C(O)C2O)C(O)C(O)C1O (some centres undefined)
TGI: 33.5 µM

Compound: CC(C)C1=CCC2C(=C1)CCC1C(C)(C(=O)O)CCCC21C (centres undefined) (tested in a mixture with another compound)
TGI: > 100 µM

Compound: CCCCCCCCCCCCCC[n+]1ccc2c(C)c3c(c(C)c2c1)c1cc(O)ccc1n3CC
TGI: 1.33 µM

If you can, please state the reported TGI value of O=C(CCCCCCC(=O)Nc1cccnc1)NO .
> 100 µM

Item: N#CCCN(CCC#N)c1ccc(/C=C2\N=C(c3ccccc3)N(NC(N)=S)C2=O)cc1
> 100 µM

Item: CC(=Nc1ccccc1)C1=C(O)C(Cc2ccccc2)NC1=O (centres undefined)
> 100 µM

Item: CCSc1cc(=O)n(C)c(=O)n1C
> 100 µM

====

GI50: recorded values
- System: OVCAR-5 ovarian
- Experiment Notes: NCI tumour cell line growth inhibition, 48 h

Compound: CC(=Nc1ccccc1)C1=C(O)C(Cc2ccccc2)NC1=O (stereo not drawn)
Result: 0.0938 µM
//
Compound: CC1(C)[C@@H](O[C@@H]2OC[C@@H](O[C@@H]3O[C@H](CO)[C@@H](O)[C@H](O)[C@H]3O[C@@H]3OC[C@@H](O)[C@H](O)[C@H]3O)[C@H](O)[C@H]2O[C@@H]2O[C@H](CO)[C@@H](O)[C@H](O)[C@H]2O)CC[C@]2(C)[C@H]3CC[C@]45OC[C@@]6(CC[C@](C)(C=O)C[C@H]64)[C@H](O)C[C@@]5(C)[C@]3(C)CC[C@@H]12
Result: 0.834 µM
//
Compound: CC[C@@H](C(=O)[C@@H](C)[C@@H](O)[C@H](C)[C@@H]1O[C@@H]([C@@H](CC)C(=O)N(CC)CC)CC[C@@H]1C)C1O[C@]2(C=CC(=O)[C@]3(CC[C@@](C)([C@H]4CC[C@](O)(CC)[C@H](C)O4)O3)O2)[C@H](C)C[C@@H]1C (stereo partly drawn)
Result: 2.85 µM
//
Compound: N#Cc1c(N)nc(N2CCOCC2)c(C#N)c1-c1cccnc1
Result: 25.7 µM
//
Compound: COc1cc(/C=C/C(=O)c2ccc(NC(=O)CN3CCN(c4cc5c(cc4F)c(=O)c(C(=O)O)cn5C4CC4)CC3)cc2)cc(OC)c1OC
Result: 2.96 µM

If you can, please state the reported GI50 value of N#CSCC1CC(O)(c2ccccc2)CC(c2ccc(F)cc2)O1 (stereo not drawn) .
2.32 µM

Item: COc1cc(C2=C(C#Cc3ccccc3)COC2=O)cc(OC)c1OC
7.89 µM

Item: COC(=O)C1=C(C)NC(C)=C(C(=O)OC)C1/C=C(Cl)/C=C/c1ccccc1
19.4 µM

Item: COc1cc(/C=C/C(=O)c2c(C)nc3ccccc3c2C)ccc1OCCCOc1cc2c(cc1OC)C(=O)N1CCC[C@H]1C=N2
0.03 µM

Item: CN(C)c1ccc(Nc2cc(-c3cccc(OC(F)(F)F)c3)nc3ccc(N4CCCC4)cc23)cc1
1.79 µM

Item: Oc1[nH]c2ccc(Cl)cc2c1/C=c1/ccc2c(c1)N=C(c1ccc(F)cc1)N=2
4.17 µM

Item: O=C(NCc1ccc(Cn2c(=O)sn(-c3ccccc3)c2=O)cc1)OCc1ccc2c(Br)cc(Br)c(O)c2n1
1.43 µM

Item: Cc1c(COc2cc(OCc3cccc(C#N)c3)c(CN3C[C@H](O)C[C@@H]3C(=O)O)cc2Cl)cccc1-c1ccc2c(c1)OCCO2
17.3 µM

====

- System: HOP-92 NSCLC
- Experiment Notes: NCI tumour cell line growth inhibition, 48 h
TGI: recorded values

Compound: CCCCCCCCCCCCOP(=O)(O)OCC(N)C(=O)O (centres undefined)
Experimental Target: HOP-92 NSCLC
Measured Property: TGI
Result: 43.3 µM
//
Compound: COC(=O)/C=C/c1ccc2c(c1)CC1(C2)Cc2cc3c(cc2C1=O)CCC3 (centres undefined)
Experimental Target: HOP-92 NSCLC
Measured Property: TGI
Result: > 100 µM

If you can, please state the reported TGI value of CN(C)c1ccc(Nc2cc(-c3cccc(OC(F)(F)F)c3)nc3ccc(N4CCCC4)cc23)cc1 .
3.71 µM

Item: c1csc(-c2cc(-c3cccs3)c(-c3cccs3)s2)c1
> 100 µM

Item: N=C(N)SCc1ccc(Cl)cc1Cl (tested in a mixture with another compound)
34.6 µM

Item: CC(C)(C)c1cc(C2=NN(c3ccccc3)C(c3ccccc3)C2)cc(C(C)(C)C)c1O (centres undefined)
> 100 µM
